# assayOverview: Tissue distribution and pharmacokinetics in E0771 tumor-bearing mice
# Format: in vivo, mouse
# recordedConditions: kidney; IV DTS-201 92 μmol/kg; label = analyte
readoutKind: Cmax (nM)
Respond numerically; units are nM and should not be typed.

Enquiry: For COc1cccc2c1C(=O)c1c(O)c3c(c(O)c1C2=O)C[C@@](O)([C@@H](O)CO)C[C@@H]3O[C@H]1C[C@H](N)[C@H](O)[C@H](C)O1 , what is its reported Cmax?
Return: 1480

###

# assayOverview: Tissue distribution and pharmacokinetics in E0771 tumor-bearing mice
# Type: in vivo, mouse
# recordedConditions: liver; IV Doxorubicin 92 μmol/kg; label = analyte
readoutKind: Cmax (µM)
Respond numerically; units are µM and should not be typed.

Enquiry: For COc1cccc2c1C(=O)c1c(O)c3c(c(O)c1C2=O)C[C@@](O)([C@@H](O)CO)C[C@@H]3O[C@H]1C[C@H](N)[C@H](O)[C@H](C)O1 , what is its reported Cmax?
Return: 6

###

# assayOverview: Tissue distribution and pharmacokinetics in E0771 tumor-bearing mice
# Format: in vivo, mouse
# recordedConditions: kidney; IV Doxorubicin 92 μmol/kg; label = analyte
readoutKind: Cmax (µM)
Respond numerically; units are µM and should not be typed.

Enquiry: For COc1cccc2c1C(=O)c1c(O)c3c(c(O)c1C2=O)C[C@@](O)([C@@H](O)CO)C[C@@H]3O[C@H]1C[C@H](N)[C@H](O)[C@H](C)O1 , what is its reported Cmax?
Return: 6.8

###

# assayOverview: Tissue distribution and pharmacokinetics in E0771 tumor-bearing mice
# Type: in vivo, mouse
# recordedConditions: kidney; IV PhAc-ALGP-Dox 92 μmol/kg; label = analyte
readoutKind: Cmax
Hi, when you answer, please include the unit after the number. Thanks!

Enquiry: For COc1cccc2c1C(=O)c1c(O)c3c(c(O)c1C2=O)C[C@@](O)([C@@H](O)CO)C[C@@H]3O[C@H]1C[C@H](N)[C@H](O)[C@H](C)O1 , what is its reported Cmax?
Return: 1960 nM

###

# assayOverview: Tissue distribution and pharmacokinetics in E0771 tumor-bearing mice
# Type: in vivo, mouse
# recordedConditions: kidney; IV PhAc-ALGP-Dox 92 μmol/kg; label = analyte
Peptide text beside a SMILES is read from it. * marks the point of attachment. Doxorubicin(3'-N) = COc1cccc2c1C(=O)c1c(O)c3c(c(O)c1C2=O)C[C@@](O)(C(=O)CO)C[C@@H]3O[C@H]1C[C@H](N*)[C@H](O)[C@H](C)O1; Phosphonoacetyl = O=C(CP(=O)(O)O)*
readoutKind: t 1/2α

Enquiry: For COc1cccc2c1C(=O)c1c(O)c3c(c(O)c1C2=O)C[C@@](O)(C(=O)CO)C[C@@H]3O[C@H]1C[C@H](NC(=O)[C@@H]2CCCN2C(=O)CNC(=O)[C@H](CC(C)C)NC(=O)[C@H](C)NC(=O)CP(=O)(O)O)[C@H](O)[C@H](C)O1 [PhAc-ALGP-Dox] (Phosphonoacetyl-ALGP-{Doxorubicin(3'-N)}) , what is its reported t 1/2α?
Return: 0.1

Enquiry: Input COc1cccc2c1C(=O)c1c(O)c3c(c(O)c1C2=O)C[C@@](O)([C@@H](O)CO)C[C@@H]3O[C@H]1C[C@H](N)[C@H](O)[C@H](C)O1
Return: 1

Enquiry: Input COc1cccc2c1C(=O)c1c(O)c3c(c(O)c1C2=O)C[C@@](O)(C(=O)CO)C[C@@H]3O[C@H]1C[C@H](NC(=O)[C@@H]2CCCN2C(=O)CNC(=O)[C@@H](N)CC(C)C)[C@H](O)[C@H](C)O1
Return: 0.1

Enquiry: Input COc1cccc2c1C(=O)c1c(O)c3c(c(O)c1C2=O)C[C@@](O)(C(=O)CO)C[C@@H]3O[C@H]1C[C@H](NC(=O)[C@@H]2CCCN2C(=O)CN)[C@H](O)[C@H](C)O1
Return: 0.2

###

# assayOverview: Tissue distribution and pharmacokinetics in E0771 tumor-bearing mice
# Format: in vivo, mouse
# recordedConditions: liver; IV PhAc-ALGP-Dox 92 μmol/kg; label = analyte
readoutKind: Cmax (nM)
Respond numerically; units are nM and should not be typed.

Enquiry: For COc1cccc2c1C(=O)c1c(O)c3c(c(O)c1C2=O)C[C@@](O)([C@@H](O)CO)C[C@@H]3O[C@H]1C[C@H](N)[C@H](O)[C@H](C)O1 , what is its reported Cmax?
Return: 440

###

# assayOverview: Tissue distribution and pharmacokinetics in E0771 tumor-bearing mice
# Type: in vivo, mouse
# recordedConditions: liver; IV DTS-201 92 μmol/kg; label = analyte
readoutKind: Cmax (nM)
Respond numerically; units are nM and should not be typed.

Enquiry: For COc1cccc2c1C(=O)c1c(O)c3c(c(O)c1C2=O)C[C@@](O)([C@@H](O)CO)C[C@@H]3O[C@H]1C[C@H](N)[C@H](O)[C@H](C)O1 [DoxOL, Doxorubicinol] , what is its reported Cmax?
Return: 670

###

# assayOverview: Tissue distribution and pharmacokinetics in E0771 tumor-bearing mice
# Format: in vivo, mouse
# recordedConditions: tumor; IV Doxorubicin 92 μmol/kg; label = analyte
readoutKind: Cmax (nM)
Respond numerically; units are nM and should not be typed.

Enquiry: For COc1cccc2c1C(=O)c1c(O)c3c(c(O)c1C2=O)C[C@@](O)([C@@H](O)CO)C[C@@H]3O[C@H]1C[C@H](N)[C@H](O)[C@H](C)O1 [DoxOL, Doxorubicinol] , what is its reported Cmax?
Return: 120
